assay_info: TTR transcription activators in neuroblastoma reporter cells, primary screen, cell-based, luminescence, SH-SY5Y, TTR promoter Gaussia luciferase (AID 1117267);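 also: cells exposed to compounds for one day before reading; 0% = median of all test compound wells on the plate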
experimental_parameters: at 16.7 µM, 100% = recombinant luciferase protein wells
The campaign covered roughly 92,000 compounds. About 1,200 (1.3%) were called active.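 The calls were made as follows: active = activation above the mean of all tested compounds plus 3 SD (cut at about 9.5% in these data); inactive = the rest.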 The sample holds actives, similar compounds and a random draw of the others, so the mix is not that of the screen.
Allowed answers: Yes = active, No = inactive

Write down the call the test reported for this molecule. Item: "COc1cc(C(=O)NNC(=O)CN2C(=O)NC3(CCCC3)C2=O)cc(OC)c1OC"
No

I would be grateful if you could indicate the recorded call for CCOc1ccc(CN2CCN(Cc3ccon3)CC2CCO)cc1 (stereo unspecified) .
No

// return assay outcome for COc1ccc(CCNC(=O)C(Sc2ccccn2)c2ccccc2)cc1OC (stereo unspecified)
No

Outcome logged for "Cc1nc(Nc2ccc3c(c2)OCCO3)c2nnn(Cc3ccccc3Cl)c2n1" in this assay:
Yes

Hi, sorry to bother you, what did the test record for "Cc1cc(C)n2ncc(C(=O)Nc3ccc4c(c3)OCCO4)c2n1" ?
No

So what was the verdict on "Cc1nc2nc(C)c(CCC(=O)N3CCN(c4ccccc4)CC3)c(C)n2n1" in this test?
Yes

Given "O=C(NC(=O)c1ccccc1N1CCCCC1)Nc1ccc(Br)cc1" , state the outcome it received in this test.
Yes

Hello, I am checking results. What call was entered for CCC(C)NCCOCCOc1ccc(Br)cc1C (stereo unspecified) ?
No

Which result was noted for this molecule in the test: "CC(=O)c1ccc2c(c1)OCCOCCOc1ccc(C(C)=O)cc1OCCOCCO2"
No

// param item: "C=CCN1C(=O)C2(OCCCO2)c2cccc(Cl)c21" ; yields the recorded call
No

Write down the call the test reported for this molecule. Item: "Cn1c(=O)c2c(ncn2CC(=O)N2CCN(c3ccccc3)CC2)n(C)c1=O"
No

* * *

assay_info: TTR transcription activators in neuroblastoma reporter cells, primary screen, cell-based, luminescence, SH-SY5Y, TTR promoter Gaussia luciferase (AID 1117267);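 also: cells exposed to compounds for one day before reading; 0% = median of all test compound wells on the plate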
experimental_parameters: at 16.7 µM, 100% = recombinant luciferase protein wells
The whole screen tested about 92,000 compounds, of which about 1,200 (1.3%) were called active.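 How the source made its calls: active means activation above the mean of all tested compounds plus 3 SD (cut at about 9.5% in these data); inactive means the rest.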 The entries come from a sample that favours actives as a whole.
Write down the outcome that applies. Available outcomes: class 1 (active), class 0 (inactive)

Please indicate how the test categorized "O=C(O)Cn1c(Cc2ccccc2)nc2ccccc21" .
class 1

Which result was noted for this compound in the test: "Cc1ccc(CN2CCCOCCS2(=O)=O)cc1"
class 1

State the result this test recorded for "O=S(=O)(Cc1ccccc1)c1nc2ccccc2n1Cc1ccccn1" .
class 0

How was "CC(=O)c1c(C)[nH]c(C(=O)COc2ccc3c(C)cc(=O)oc3c2)c1C" classified in this test?
class 1

What classification did "COc1ccc(CCNC(=O)COc2ccc3c(c2)OCO3)cc1" end up with in this test?
class 0

GET /call?item= Cc1ccn(CC(=O)N2N=C(C(F)F)CC2(O)C(F)F)n1 (stereo not given) returns the recorded outcome of this test.
class 0

For O=C(C1=C(O)C(=O)N(CCOCCO)C1c1ccccn1)c1cccs1 (stereo not given) , what call appears in the results of this test?
class 0

Hey, what did the test say about COc1c(C)cc(C(O)c2ncc(-c3cccc(C(F)(F)F)c3)[nH]2)cc1C (stereo not given) ?
class 0

Entry "O=C(c1cccc(S(=O)(=O)N2CCCCCC2)c1)N1CCN(Cc2ccccc2)CC1" : call = ?
class 0

Dear all, I need the recorded test outcome for "COC(=O)[C@]12C[C@H](CC(=O)NCc3cccc4ccccc34)C(=O)N(CCc3ccc(OC)c(OC)c3)C1=C[C@H](C1CCCC1)O[C@@H]2C" , thank you.
class 0

Entry Nc1ccc2c(c1)C(O)c1ccc(Cl)cc1-2 (stereo not given) : call = ?
class 0

Assay outcome for "CCN(CC)CCCN=C(N)N" : what was it?
class 0

For this compound, state the assay outcome: O=C1CC(N2CCN(c3ccc(F)cc3)CC2)C(=O)N1c1ccccc1 (stereo not given)
class 0

Hi team, can someone confirm the assay call for "CCCCOCCCNC(=O)C[C@H]1C[C@@]2(C(=O)OC)C(=C[C@H](C(C)(C)C)O[C@@H]2C)N(CCc2ccc(OC)c(OC)c2)C1=O" ?
class 1

Per the records of this test, what outcome belongs to CCC(=O)c1c(CC)c2n3c1=CC[C@H]3CC(Br)C=2 (stereo not given in full) ?
class 0

Given CCC(C)[C@H]1COCCS(=O)(=O)N1Cc1ccc(C)cc1 (stereo not given in full) , state the outcome it received in this test.
class 0

Each compound tested received a call. Report the one for "COc1ccc(CNc2nccs2)cc1" .
class 0

Which outcome did this test record for the compound CC(C)(C)C1CCC(OC(=O)CCC(=O)Nc2ccccc2)CC1 (stereo not given) ?
class 1

// param item: "COc1ccc(S(=O)(=O)NCC(=O)NCc2cc(=O)n(C)c(=O)n2C)cc1F" ; yields the recorded call
class 1

What classification did "CC(=O)OCc1cc(=O)n(C)c(=O)n1C" end up with in this test?
class 0

// outcome(item) with item = "C(#CCN1CCOCC1)CCCN1CCOCC1"
class 0

Recorded test call requested for O=C1CC(Sc2ncn[nH]2)C(=O)N1c1ccccc1 (stereo not given)
class 0

Record request — test call for "O=S(=O)(NCCc1ccccc1)c1ccccc1"
class 0

Recorded test outcome, item "COC(=O)COc1ccc2oc(=O)cc(C)c2c1"
class 0

Which outcome did this test record for the compound "CCOC(=O)c1c(C)c(C(=O)NCCc2ccc(S(N)(=O)=O)cc2)c(C)n1CC" ?
class 0

Identify the outcome logged in this assay for the compound shown: CC(C(=O)N(C)CC(=O)Nc1ccccc1C(F)(F)F)N1C(=O)c2ccccc2C1=O (stereo not given)
class 0

Outcome logged for "COc1ccc(Cn2ccc3ccc(-c4ccc5ccn(Cc6ccccc6C)c5c4)cc32)cc1" in this assay:
class 0

How was "O=C(CCC1CCN(C(=O)c2cccc(Cl)c2F)CC1)Nc1ccccc1" classified in this test?
class 0

Write down the call the test reported for this compound. Item: "COCCn1c(SCC(=O)N2CCCCCC2)nc2c(c1=O)SCC2"
class 0

Record request — test call for CCC(C(=O)NCc1ccccc1)n1c(Cc2cc(F)cc(F)c2)nc2ccccc21 (stereo not given)
class 0

// param item: COc1ccc(-n2ncc3c2CC(C)(C)CC3NC(=O)CCc2c(C)noc2C)cc1 (stereo not given) ; yields the recorded call
class 0

Identify the outcome logged in this assay for the compound shown: "COc1ccccc1CC(=O)Nc1ccc(S(=O)(=O)N2CCCC2)cc1"
class 0

How did this test come out for "CCOC(=O)Cc1csc(NC(=O)COc2ccc3c(C)cc(=O)oc3c2)n1" ?
class 0

// outcome(item) with item = "C=CCN(C(=O)Nc1ccc2c(c1)nc(C)n2C)c1ccccc1"
class 0

Each compound tested received a call. Report the one for Cc1nnc(SCC(=O)NNC(=O)c2ccc(Cl)cc2)n1CC1CCCO1 (stereo not given) .
class 0

Kindly provide the recorded test outcome for the following compound: "O=S(=O)(NCc1ccccc1Br)c1ccccc1Br"
class 1

Recorded test call requested for "CSc1sc(C(=O)NNC(=O)c2ccc(Cl)cc2)c2c1C=CCC2"
class 0

Dear colleague, could you share the recorded outcome for "CCN([C@H](CO)C(C)C)S(=O)(=O)c1ccccc1Br" when you have a moment?
class 0

Lab log entry: "CCOC(=O)N1CCN(S(=O)(=O)c2ccc(-n3cnnn3)cc2)CC1" — outcome as called in the assay?
class 0

How was "CC1CCN(CCC(=O)Nc2ccccc2)CC1" classified in this test?
class 0

GET /call?item= "O=C(Nc1nncs1)c1cccc(S(=O)(=O)N2CCCCC2)c1" returns the recorded outcome of this test.
class 0

Outcome? CCOc1cccc(NC(=O)C2CCCN(S(=O)(=O)c3ccc(OC)cc3)C2)c1 (stereo not given)
class 0

What call does the record list for Cc1cccc(N2C(=O)CC(SC(N)=Nc3ccccc3)C2=O)c1 (stereo not given) ?
class 1

Record lookup: outcome of this test for "Cc1noc(C)c1S(=O)(=O)NCCc1ccc(S(N)(=O)=O)cc1" ?
class 1

Tell me the assay call for "CCOC(=O)COc1ccc([N+](=O)[O-])cc1" please.
class 0
